TEST TARGET: CYP2C19 (Homo sapiens, UniProt P33261)
Construct: human liver microsomes (0.25 mg/mL); from tissue; host or cells: human liver microsomes
Sequence (P33261 whole entry): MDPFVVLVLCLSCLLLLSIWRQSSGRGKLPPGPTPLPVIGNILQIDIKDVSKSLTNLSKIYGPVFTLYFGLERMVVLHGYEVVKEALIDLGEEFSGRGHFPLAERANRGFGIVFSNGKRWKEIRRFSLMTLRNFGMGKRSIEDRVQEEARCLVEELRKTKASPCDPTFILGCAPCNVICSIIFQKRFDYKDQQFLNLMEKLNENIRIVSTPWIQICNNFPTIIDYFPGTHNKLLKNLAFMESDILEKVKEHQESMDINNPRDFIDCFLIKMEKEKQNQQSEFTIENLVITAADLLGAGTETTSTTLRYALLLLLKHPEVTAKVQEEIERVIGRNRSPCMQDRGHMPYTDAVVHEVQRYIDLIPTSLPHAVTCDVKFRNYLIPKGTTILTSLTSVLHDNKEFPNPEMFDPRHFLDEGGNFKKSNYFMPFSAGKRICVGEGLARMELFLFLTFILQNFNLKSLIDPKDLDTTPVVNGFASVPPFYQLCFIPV
MEASUREMENT DESCRIPTION: Inhibitory effect on CYP coenzyme activity, human liver microsomes
Type: in vitro ADME
EXPERIMENTAL PARAMETERS: compound 10 μM; human liver microsomes 0.25 mg/mL; substrate S-mephenytoin; 15 minutes
MEASUREMENT KIND: CYP2C19
Could you keep your reply to the number by itself?

Known CYP2C19 results, listed for orientation:
Task: Give the measured CYP2C19 of Cc1cc(NN=C(C#N)C#N)ccc1OCc1cscn1 [Compound 152] .
Output: 95

Task: Give the measured CYP2C19 of COc1cc(NN=C(C#N)C#N)ccc1C(=O)Nc1cnc(C)cn1 [Compound 104] .
Output: 82.4

Task: Give the measured CYP2C19 of Cc1cccc(C(=O)Nc2ccc(NN=C(C#N)C#N)cn2)c1F [Compound 20] .
Output: 72

Task: Give the measured CYP2C19 of Cc1cnc(C(=O)Nc2ccc(NN=C(C#N)C#N)c(F)c2)cn1 [Compound 3] .
Output: 78.2

Task: Give the measured CYP2C19 of Cc1cnc(C(=O)Nc2ccc(NN=C(C#N)C#N)cn2)cn1 [Compound 1] .
Output: 74.6

Further cases:
Task: Give the measured CYP2C19 of Cc1ccc(NC(=O)c2ccc(NN=C(C#N)C#N)cn2)cn1 [Compound 38] .
Output: 83.0

Task: Give the measured CYP2C19 of Cc1cncc(NC(=O)c2ccc(NN=C(C#N)C#N)cc2)n1 [Compound 46] .
Output: 83.1

Task: Give the measured CYP2C19 of N#CC(C#N)=NNc1ccc(NC(=O)c2ccoc2)nc1 [Compound 110] .
Output: 88.4

Task: Give the measured CYP2C19 of COc1cc(NN=C(C#N)C#N)ccc1OCc1cnccn1 [Compound 159] .
Output: 88

Task: Give the measured CYP2C19 of COc1cc(NN=C(C#N)C#N)ccc1OCc1cnc(C)cn1 [Compound 162] .
Output: 75.9
